# System: EKVX NSCLC
# TEST_DESCRIPTION: NCI tumour cell line growth inhibition, 48 h; in the data active = GI50 below about 0.43 µM; inactive = the rest
Returns: one label drawn from 1 (yes) for active, 0 (no) for inactive

[
  {
    "TEST_SMILES": "O=C(Nc1ccc(Cc2ccccc2)cc1)Nc1nn(C(=O)Nc2ccc(Cc3ccccc3)cc2)c2ccccc12",
    "ASSIGNED_CATEGORY": "0 (no)"
  },
  {
    "TEST_SMILES": "O=S(=O)([O-])c1ccc(N=Cc2ccccc2[O-])cc1.O=S(=O)([O-])c1ccc(N=Cc2ccccc2[O-])cc1.[Co+2]",
    "ASSIGNED_CATEGORY": "0 (no)"
  },
  {
    "TEST_SMILES": "NCCc1ccc(S(=O)(=O)F)cc1",
    "ASSIGNED_CATEGORY": "0 (no)"
  }
]

What outcome does the record of this test show for CN(C)CCCN(CCC1CCCCC1)CCC1CCCCC1 ?
0 (no)
